Tgt: LCAT (Homo sapiens)
Construct: The obtained fraction was dialyzed against phosphate-buffered saline (pH 7.4) and used as an enzyme source and an acceptor for LCAT
Sequence (P04180 25-440): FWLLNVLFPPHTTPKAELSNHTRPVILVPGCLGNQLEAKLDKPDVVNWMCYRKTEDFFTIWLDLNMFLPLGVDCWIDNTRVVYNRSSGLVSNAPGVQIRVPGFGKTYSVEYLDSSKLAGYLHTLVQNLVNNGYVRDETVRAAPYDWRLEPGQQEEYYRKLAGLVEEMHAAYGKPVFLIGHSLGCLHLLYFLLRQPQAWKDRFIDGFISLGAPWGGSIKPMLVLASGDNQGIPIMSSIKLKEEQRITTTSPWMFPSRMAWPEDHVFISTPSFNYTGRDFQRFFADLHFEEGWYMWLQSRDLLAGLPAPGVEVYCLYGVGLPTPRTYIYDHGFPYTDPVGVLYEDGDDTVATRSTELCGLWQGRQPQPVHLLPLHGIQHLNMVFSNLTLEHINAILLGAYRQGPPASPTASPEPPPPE
Assay Summary: LCAT Activity Measurement (In Vitro)
Assay Context: EC50 of LCAT activation; HDL3 fraction from plasma of a healthy person as enzyme source and acceptor; [14C]cholesterol; 37° C., approximately 16 hours
Endpoint Name: EC50 (nM)

Previously resolved entries follow.
>>> measured_result("N#Cc1cnc(N2CCC(c3n[nH]c4c3C(O)(C(F)(F)F)CC(=O)N4)CC2)s1 (stereo not shown)")
470
>>> measured_result("COc1ccc(N2CCC(c3n[nH]c4c3C(O)(C(F)(F)F)CC(=O)N4)CC2)nc1 (stereo not shown)")
420
>>> measured_result("O=C1CC(O)(C(F)(F)F)c2c(C3CCN(c4cnc(C5CC5)nc4)CC3)n[nH]c2N1 (stereo not shown)")
68
>>> measured_result("Cc1ccnc(N2CCC(c3n[nH]c4c3C(O)(C(F)(F)F)CC(=O)N4)CC2)c1 (stereo not shown)")
290
>>> measured_result("O=C1CC(O)(C(F)(F)F)c2c(C3CCN(c4ncccc4Cl)CC3)n[nH]c2N1 (stereo not shown)")
3090

(1) O=C1CC(O)(C(F)(F)F)c2c(C3CCN(c4nnc(C(F)(F)F)s4)CC3)n[nH]c2N1 (stereo not shown)
(2) O=C1CC(O)(C(F)(F)F)c2c(C3CCN(c4ccc(OC(F)(F)F)cc4)CC3)n[nH]c2N1 (stereo not shown)
Prompt line: Just tell me: smaller EC50 value, 1 or 2 ? API: response body contains the label of the selected item.
Response line: 2

(P) N#Cc1ncc(N2CCC(c3n[nH]c4c3C(O)(C(F)(F)F)CC(=O)N4)CC2)cc1F (stereo not shown)
(Q) COc1ccc(N2CCC(c3n[nH]c4c3C(O)(C(F)(F)F)CC(=O)N4)CC2)nn1 (stereo not shown)
Prompt line: From the recorded data, which exceeds the other in EC50: P or Q ? // respond with label for picked entry
Response line: Q

(P) O=C1CC(O)(C(F)(F)F)c2c(C3CCN(c4ncccc4C(F)(F)F)CC3)n[nH]c2N1 (stereo not shown)
(Q) O=C1CC(O)(C(F)(F)F)c2c(C3CCN(c4cnc(OC(F)F)c(OC(F)F)c4)CC3)n[nH]c2N1 (stereo not shown)
Prompt line: Please compare: P and Q . Report which one has the smaller EC50 value. Give the chosen item's label as your response.
Response line: Q
